FYI, the data here is from patent US20260317324A1.

Target: BRAF G469A (Homo sapiens, UniProt P15056, G469A)
Construct: Horizon Discovery (HCT-116 BRAF−/− cells); host or cells: HCT-116 BRAF−/− cells, clone 34, lentiviral transduction
Sequence (P15056 whole entry G469A): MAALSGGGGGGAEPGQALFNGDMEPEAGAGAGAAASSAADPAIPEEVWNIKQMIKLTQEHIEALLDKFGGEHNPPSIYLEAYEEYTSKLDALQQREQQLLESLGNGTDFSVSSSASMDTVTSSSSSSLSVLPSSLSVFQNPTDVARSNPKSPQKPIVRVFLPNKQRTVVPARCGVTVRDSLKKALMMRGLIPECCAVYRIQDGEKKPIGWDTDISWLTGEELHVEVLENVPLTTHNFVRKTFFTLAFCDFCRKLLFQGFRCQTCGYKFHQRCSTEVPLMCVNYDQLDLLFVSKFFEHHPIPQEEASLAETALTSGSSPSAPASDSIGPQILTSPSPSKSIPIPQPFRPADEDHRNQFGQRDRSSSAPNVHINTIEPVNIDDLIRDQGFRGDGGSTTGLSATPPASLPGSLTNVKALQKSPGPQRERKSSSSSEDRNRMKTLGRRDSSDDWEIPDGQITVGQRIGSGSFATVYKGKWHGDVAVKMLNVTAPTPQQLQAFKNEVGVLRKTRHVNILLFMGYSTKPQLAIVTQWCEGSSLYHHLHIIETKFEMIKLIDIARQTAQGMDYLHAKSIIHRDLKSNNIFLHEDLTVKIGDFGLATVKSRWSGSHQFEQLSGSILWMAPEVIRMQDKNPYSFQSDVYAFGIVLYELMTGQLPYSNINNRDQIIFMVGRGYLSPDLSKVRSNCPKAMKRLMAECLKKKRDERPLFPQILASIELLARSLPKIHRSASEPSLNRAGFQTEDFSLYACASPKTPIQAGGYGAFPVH
Assay: BRAF HiBiT degradation assay, C-terminal HiBiT-tagged BRAF G469A overexpressed in HCT-116 BRAF−/− cells (clone 34), Nano-Glo HiBiT Lytic assay
Type: cell-based
Conditions: BRAF G469A (Class 2), HCT-116 BRAF−/− cells; observed Dmax relative to DMSO control
Reported Dmax is given for each of the following molecules.

# example entries with known answers
Molecule	Dmax
O=C1CCN(c2ccc(N3CCC(CN4CCN(c5ccc(-n6cc(-c7cc(Cl)cc(NS(=O)(=O)N8CC[C@@H](F)C8)c7F)c(-c7ccncc7)n6)nc5)CC4)CC3)cc2)C(=O)N1	30 to 70%
CCN(C)S(=O)(=O)Nc1cc(Cl)cc(-c2cn(-c3ccc(N4CCN(CC5CCN(c6ccc([C@H]7CCC(=O)NC7=O)cn6)CC5)CC4)cn3)nc2-c2ccncc2)c1F	30 to 70%
C[C@@H]1CN(c2ccc(-n3cc(-c4cc(Cl)cc(NS(=O)(=O)N5CCCC5)c4F)c(-c4ccncc4)n3)nc2)CCN1CC1CCN(c2ccc(C3CCC(=O)NC3=O)cn2)CC1 (mixture of isomers)	> 70%
O=C1CC[C@H](c2ccc(N3CCC(CN4CCN(c5ccc(-n6cc(-c7cc(F)cc(NS(=O)(=O)N8CCCC8)c7F)c(-c7ccncc7)n6)cc5)CC4)CC3)nc2)C(=O)N1	> 70%

Reported Dmax for O=C1CCC(c2ccc(N3CCC4(CC3)CC(CN3CCN(c5ccc(-n6cc(-c7cc(Cl)cc(NS(=O)(=O)N8CC[C@@H](F)C8)c7F)c(-c7ccncc7)n6)nc5)CC3)C4)cc2)C(=O)N1 (mixture of isomers) : what is it?
< 30%

I have this molecule here, `O=C1CC[C@H](c2ccc(N3CCC(CN4CCN(c5ccc(-n6cc(-c7cc(Cl)cc(NS(=O)(=O)N8CCCC8)c7F)c(-c7ccncc7)n6)cc5)CC4)CC3)nc2)C(=O)N1` , and I need its recorded Dmax.
> 70%

Data request, read-out Dmax, for `O=C1CC[C@H](c2ccc(N3CCC(CN4CCN(c5ccc(-n6cc(-c7cc(Cl)cc(NS(=O)(=O)N8CC[C@@H](F)C8)c7F)c(-c7ccncc7)n6)c(F)c5)CC4)CC3)nc2)C(=O)N1`
> 70%

Entry `O=C1CC[C@H](c2ccc(N3CCC(CN4CCN(c5ccc(-n6cc(-c7cc(Cl)cc(NS(=O)(=O)N8CCCC8)c7F)c(-c7ccncc7)n6)cn5)CC4)CC3)cc2)C(=O)N1` has what Dmax?
30 to 70%

# query: Dmax of entry `CCN(C)S(=O)(=O)Nc1cc(Cl)cc(-c2cn(-c3ccc(N4CCN(CC5CCN(c6ccc([C@H]7CCC(=O)NC7=O)cc6)CC5)CC4)cn3)nc2-c2ccncc2)c1F`
30 to 70%

Data request, read-out Dmax, for `O=C1CC[C@@H](c2ccc(N3CCC(CN4CCN(c5ccc(-n6cc(-c7cc(Cl)cc(NS(=O)(=O)N8CCCC8)c7F)c(-c7ccncc7)n6)nc5)CC4)CC3)nc2)C(=O)N1`
> 70%

Endpoint output: Dmax of CCN(C)S(=O)(=O)Nc1cc(Cl)cc(-c2cn(-c3ccc(N4CCN(CC5CCN(c6ccc(C7CCC(=O)NC7=O)cn6)CC5)CC4)cc3)nc2-c2ccncc2)c1F (racemic) . Value?
> 70%
